SUBJECT_OF_TEST: Mu-type opioid receptor (Homo sapiens, UniProt P35372)
Sequence (P35372 whole entry): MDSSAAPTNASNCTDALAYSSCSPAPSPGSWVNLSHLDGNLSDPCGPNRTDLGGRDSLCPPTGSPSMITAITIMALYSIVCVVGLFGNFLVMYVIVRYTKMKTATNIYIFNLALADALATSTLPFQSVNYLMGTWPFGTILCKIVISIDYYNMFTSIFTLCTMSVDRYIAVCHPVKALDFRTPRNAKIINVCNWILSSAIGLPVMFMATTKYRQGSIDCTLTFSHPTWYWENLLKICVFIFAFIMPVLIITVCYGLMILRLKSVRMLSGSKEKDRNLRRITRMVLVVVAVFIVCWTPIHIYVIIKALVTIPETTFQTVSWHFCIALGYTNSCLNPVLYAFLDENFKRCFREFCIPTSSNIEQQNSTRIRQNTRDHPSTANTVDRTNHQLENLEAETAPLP
METHOD_DESCRIPTION: Displacement of [3H]DAMGO from human recombinant mu opioid receptor expressed in CHO cells
Binary call on Ki with cut-off 8 nM: strictly below means rule met, and equality or higher means rule not met.

Check out these entries, answers already filled in.
# STRUCTURE_NOTATION, ASSIGNED_CLASS
rows = [
    ("Oc1ccc2c3c1O[C@H]1c4c(c5c(n4Cc4ccccc4)CCCC5)C[C@@]4(O)C(C2)N(CC2CC2)CC[C@]314", "rule met"),
    ("Oc1ccc2c3c1O[C@H]1c4c(c5c(n4CCc4ccccc4)CCCC5)C[C@@]4(O)C(C2)N(CC2CC2)CC[C@]314", "rule met"),
    ("CCn1c2c(c3c1[C@@H]1Oc4c(O)ccc5c4[C@@]14CCN(C)C(C5)[C@]4(O)C3)CCCC2", "rule not met"),
    ("CN1CC[C@]23c4c5ccc(O)c4O[C@H]2c2c(c4c(n2CCc2ccccc2)CCCC4)C[C@@]3(O)C1C5", "rule not met"),
    ("CCn1cc(-c2ccccc2)c2c1[C@@H]1Oc3c(O)ccc4c3[C@@]13CCN(CC1CC1)C(C4)[C@]3(O)C2", "rule not met"),
]

Prompt: In plain terms, does `Cn1c2c(c3c1[C@@H]1Oc4c(O)ccc5c4[C@@]14CCN(CC1CC1)[C@H](C5)[C@]4(O)C3)CCCC2` come in under 8 nM for Ki?
Response: rule met

Prompt: In plain terms, does `Oc1ccc2c3c1O[C@H]1c4c(c5c(n4CC4CCCCC4)CCCC5)C[C@@]4(O)C(C2)N(CC2CC2)CC[C@]314` come in under 8 nM for Ki?
Response: rule not met

Prompt: In plain terms, does `CN1CC[C@]23c4c5ccc(O)c4O[C@H]2c2c(c4c(n2Cc2ccccc2)CCCC4)C[C@@]3(O)C1C5` come in under 8 nM for Ki?
Response: rule not met

Prompt: In plain terms, does `Oc1ccc2c3c1O[C@H]1c4c(c5c(n4CC4CC4)CCCC5)C[C@@]4(O)C(C2)N(CC2CC2)CC[C@]314` come in under 8 nM for Ki?
Response: rule met

Prompt: In plain terms, does `CN1CC[C@]23c4c5ccc(O)c4O[C@H]2c2c(c4c(n2CC2CCCCC2)CCCC4)C[C@@]3(O)C1C5` come in under 8 nM for Ki?
Response: rule not met

Prompt: In plain terms, does `CCn1c2c(c3c1[C@@H]1Oc4c(O)ccc5c4[C@@]14CCN(CC1CC1)C(C5)[C@]4(O)C3)CCCC2` come in under 8 nM for Ki?
Response: rule met

Prompt: In plain terms, does `Cn1cc(-c2ccccc2)c2c1[C@@H]1Oc3c(O)ccc4c3[C@@]13CCN(CC1CC1)C(C4)[C@]3(O)C2` come in under 8 nM for Ki?
Response: rule met

* * *

# Ke per entry
SUBJECT_OF_TEST: Mu-type opioid receptor (Homo sapiens, UniProt P35372)
METHOD_DESCRIPTION: Activity at human recombinant mu opioid receptor expressed in CHO cells by [35S]GTP-gamma-S binding assay
Assay type: functional, cell-based
Quick reminder: number only, in nM, skip the unit.

Past entries and their recorded results:
# STRUCTURE_NOTATION, UNITS_SYMBOL, OBSERVED
data = [
    ("Cn1cc(-c2ccccc2)c2c1[C@@H]1Oc3c(O)ccc4c3[C@@]13CCN(CC1CC1)C(C4)[C@]3(O)C2", "nM", 4.04),
    ("CCn1cc(-c2ccccc2)c2c1[C@@H]1Oc3c(O)ccc4c3[C@@]13CCN(CC1CC1)C(C4)[C@]3(O)C2", "nM", 10.7),
    ("Oc1ccc2c3c1O[C@H]1c4c(c5c(n4CC4CCCCC4)CCCC5)C[C@@]4(O)C(C2)N(CC2CC2)CC[C@]314", "nM", 11.6),
    ("Cn1c2c(c3c1[C@@H]1Oc4c(O)ccc5c4[C@@]14CCN(CC1CC1)[C@H](C5)[C@]4(O)C3)CCCC2", "nM", 4.3),
    ("CCn1c2c(c3c1[C@@H]1Oc4c(O)ccc5c4[C@@]14CCN(CC1CC1)C(C5)[C@]4(O)C3)CCCC2", "nM", 5.32),
    ("Oc1ccc2c3c1O[C@H]1c4c(c5c(n4CCc4ccccc4)CCCC5)C[C@@]4(O)C(C2)N(CC2CC2)CC[C@]314", "nM", 5.66),
]

For the next question, use this compound.
Prompt: Give a short answer stating reported Ke for `Oc1ccc2c3c1O[C@H]1c4c(c5c(n4Cc4ccccc4)CCCC5)C[C@@]4(O)C(C2)N(CC2CC2)CC[C@]314` .
Response: 8.13

Attribution: ChEMBL document CHEMBL1149288
